# Tested System: Autotaxin (Homo sapiens)
# Assay Summary: Inhibition of C-terminal FLAG-tagged human recombinant autotaxin using synthetic substrate FS-3 at 10 uM measured every 2 mins by FRET assay relative to control
Measurement Name: inhibition (%)

Compound: CCCCCC(C)(C)c1ccc(Oc2ccc(NC(=O)c3cc(/N=N/c4cccc(OC)c4)c4ccccc4c3O)cc2)cc1
inhibition (%): 10

Compound: O=C(N/N=C/c1cc(Br)c(O)c(O)c1Br)/C(=C\c1ccc([N+](=O)[O-])cc1)NC(=O)c1ccccc1
inhibition (%): 20

(I) CCCCn1c(CN2CC(C)CC(C)C2)nc2cc(C(=O)NCC(O)CO)ccc21 (centres undefined)
(II) COc1cc([C@@H]2C(C(=O)c3cccs3)=C(O)C(=O)N2CCc2ccccc2)cc(Br)c1O
Of I and II , whose reported inhibition is numerically smaller? State the label of the item chosen. I
(I: 0%, II: 20%)

###

# Tested System: Autotaxin (Homo sapiens, UniProt Q13822)
# Assay Summary: Inhibition of C-terminal FLAG-tagged human recombinant autotaxin using synthetic substrate FS-3 at 10 uM measured every 2 mins by FRET assay relative to control
Measurement Name: inhibition (%)

Recorded results for 5 compounds are shown here.
Compound: CCn1c(CN2CCc3ccccc3C2)nc2cc(C(=O)NCC(O)CO)ccc21 (stereo not given)
inhibition [%]: 20

Compound: COc1cccc(/C=C2/NC(=O)N(c3cccc(Cl)c3)C2=O)c1OCc1cccc(C(=O)O)c1
inhibition [%]: 30

Compound: COc1cc(CCNC(=O)c2ccc3c(c2)nc(-c2ccccc2)n3CCc2ccc(OC)c(OC)c2)cc(OC)c1
inhibition [%]: 20

Compound: CCCCCCCCCCCCCCCCS(=O)(=O)c1ccc(S(=O)(=O)N/N=c2\sc3ccc(S(=O)(=O)O)cc3n2C)cc1C(=O)O
inhibition [%]: 20

Compound: O=C(COc1cc(Cl)c(Cl)cc1Cl)Nc1ccc(CNC(=O)c2cnc3cc(C(F)(F)F)ccc3c2O)cc1
inhibition [%]: 10

(a) CC1CN(c2ccc(C(=O)NC(Cc3ccc(O)cc3)C(N)=O)cn2)CCN1C(=O)C(N)Cc1ccccc1 (stereo not given)
(b) CCCc1ccc(S(=O)(=O)Oc2ccccc2-c2cc(CC)n(CCN3CCCCC3)n2)cc1
Of a and b , whose reported inhibition is numerically smaller? State the label of the item chosen. a

###

# Tested System: Autotaxin (Homo sapiens)
# Assay Summary: Inhibition of C-terminal FLAG-tagged human recombinant autotaxin using synthetic substrate FS-3 at 10 uM measured every 2 mins by FRET assay relative to control
Measurement Name: inhibition (%)

(P) COc1cc(/C=N/NC(=O)c2ccc(CN3C(=O)c4cccc5cccc3c45)cc2)cc(Br)c1O
(Q) CCCCS(=O)(=O)N1CCn2nc(C3CCC(CNS(=O)(=O)c4ccccc4C)CC3)cc21 (centres undefined)
Sorting by inhibition in descending order, would P or Q appear first? State the label of the item chosen. Q
(Q: 30%, P: 10%)

###

# Tested System: Autotaxin (Homo sapiens)
# Assay Summary: Inhibition of C-terminal FLAG-tagged human recombinant autotaxin using synthetic substrate FS-3 at 10 uM measured every 2 mins by FRET assay relative to control
Measurement Name: inhibition (%)

Recorded results for 5 compounds are shown here.
Compound: CC(C)(C)c1cc(/C=C/C(=O)Nc2ccc(CNC(=O)C(C#N)=C3CCCCC3)cc2)cc(C(C)(C)C)c1O
Measurement Name: inhibition
Value Observed: 20
//
Compound: O=C(O)CN1C(=O)/C(=C/c2ccc(-c3ccc(Cl)cc3)o2)S/C1=N\c1ccccc1
Measurement Name: inhibition
Value Observed: 20
//
Compound: NC(=O)C(Cc1ccc(O)cc1)NC(=O)c1ccc(N2CCN(C(=O)C(N)Cc3ccccc3)CC2)nc1 (stereo unspecified)
Measurement Name: inhibition
Value Observed: 10
//
Compound: COc1cc(/C=C2/SC(=S)N(C3CCCCC3)C2=O)ccc1OCc1ccccc1Cl
Measurement Name: inhibition
Value Observed: 0
//
Compound: O=C(O)c1ccc(-c2ccc(/C=C3/SC(=O)N(Cc4ccc(F)cc4)C3=O)o2)cc1
Measurement Name: inhibition
Value Observed: 68.8

(A) CC(CC(=O)NCCc1ccncc1)NC(=O)c1cc(-c2ccccc2)nc2ccccc12 (stereo unspecified)
(B) COc1ccc(-c2cc(C(F)(F)F)n3nc(C(=O)Nc4cc(Sc5ccc(Br)cc5)cc([N+](=O)[O-])c4)c(Cl)c3n2)cc1OC
(C) CC[C@@H]1CN2CCc3cc(OC)c(OC)cc3[C@@H]2C[C@@H]1C[C@@H]1c2cc(OC)c(OC)cc2CCN1C(=O)COCC(=O)N1CCc2cc(OC)c(OC)cc2[C@@H]1C[C@H]1C[C@H]2c3cc(OC)c(OC)cc3CCN2C[C@@H]1CC
Order the 3 compounds from highest to lowest inhibition. // format: requested-order list of labels A, B, C
(A: 20%, B: 10%, C: 0%)

(A) O=C(O)CN1C(=O)/C(=C\c2ccc(OCc3cccc4ccccc34)cc2)SC1=S
(B) O=C1c2ccccc2-c2ccc(S(=O)(=O)Nc3ccc(S(=O)(=O)Nc4nccs4)cc3)cc21
Sorting by inhibition in descending order, would A or B appear first? State the label of the item chosen. A
(A: 30%, B: 10%)
